All values here come from patent US20180127503A1.

target: T1, human ROR2 expressed on the cell surface (human, UniProt Q01974 34-943); experiment: flow cytometry, SKNJB cells (neuroblastoma); parameters: unit not given here
T1 construct: Endogenous ROR2 of human tumour cell lines; also called cell surface ROR2; ROR2 on tumour cell lines
T1 sequence (Q01974 34-943 limits assumed): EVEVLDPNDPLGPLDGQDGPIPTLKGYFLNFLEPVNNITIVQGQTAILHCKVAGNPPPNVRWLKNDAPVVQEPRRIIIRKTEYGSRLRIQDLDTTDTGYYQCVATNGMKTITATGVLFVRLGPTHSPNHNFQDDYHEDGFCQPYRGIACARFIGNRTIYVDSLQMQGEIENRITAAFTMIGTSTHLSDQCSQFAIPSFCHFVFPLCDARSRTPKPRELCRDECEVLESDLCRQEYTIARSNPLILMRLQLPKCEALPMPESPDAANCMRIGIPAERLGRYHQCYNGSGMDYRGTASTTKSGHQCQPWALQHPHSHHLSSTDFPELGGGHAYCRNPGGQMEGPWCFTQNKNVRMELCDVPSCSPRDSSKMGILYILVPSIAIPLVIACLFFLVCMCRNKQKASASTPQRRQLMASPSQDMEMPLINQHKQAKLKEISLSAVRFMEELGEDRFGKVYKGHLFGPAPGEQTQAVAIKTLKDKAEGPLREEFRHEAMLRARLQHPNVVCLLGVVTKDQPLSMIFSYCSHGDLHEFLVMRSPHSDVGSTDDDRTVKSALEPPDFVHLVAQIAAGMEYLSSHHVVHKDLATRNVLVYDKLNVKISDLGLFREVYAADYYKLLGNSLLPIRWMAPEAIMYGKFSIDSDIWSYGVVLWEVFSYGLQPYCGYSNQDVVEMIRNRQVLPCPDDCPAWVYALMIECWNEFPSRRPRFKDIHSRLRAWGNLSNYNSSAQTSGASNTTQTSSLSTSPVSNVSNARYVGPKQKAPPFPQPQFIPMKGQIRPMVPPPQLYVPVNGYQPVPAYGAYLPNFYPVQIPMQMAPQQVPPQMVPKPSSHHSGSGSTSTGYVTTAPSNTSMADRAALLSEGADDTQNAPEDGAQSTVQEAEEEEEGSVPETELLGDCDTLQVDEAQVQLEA
quantity name: binding intensity

{"columns": ["binder", "experimental result"],
 "data": [
  ["ROR2-90 full length human IgG1 antibody (antibody, V domains shown, also called clone #90; antibody #90) VH: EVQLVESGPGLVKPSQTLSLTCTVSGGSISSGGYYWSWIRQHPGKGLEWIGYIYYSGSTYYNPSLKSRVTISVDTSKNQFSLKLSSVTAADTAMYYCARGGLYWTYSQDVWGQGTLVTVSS VL: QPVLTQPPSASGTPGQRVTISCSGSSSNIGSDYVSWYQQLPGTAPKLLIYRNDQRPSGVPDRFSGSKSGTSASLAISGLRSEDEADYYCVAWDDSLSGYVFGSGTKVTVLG", 254]
]}
